assay_system: SF-1 (Homo sapiens, UniProt Q13285)
Construct: NCI-H295R SF-1-HiBiT cells with HiBiT tag knocked in at the endogenous SF1 locus; host or cells: NCI-H295R SF-1-HiBiT (knock-in at endogenous locus)
protocol_details: SF1 degradation induction in NCI-H295R SF-1-HiBiT cells (HiBiT DC50)
Assay type: cell-based
condition_set: 24 hr, concentration that induces 50% degradation of SF-1
Note to self: use Fulfilled only for DC50 readings below 7 nM; a reading exactly at 7 nM still gets Not fulfilled.

{"columns": ["compound", "cat"],
 "data": [
  ["COc1ccc([C@]2(CCN(Cc3ccc(C4=CCC(CN5CCN(C(=O)c6ccc7c(c6)n(C)c(=O)n7C6CCC(=O)NC6=O)CC5)CC4)cc3)CC3(C(F)(F)F)CCC3)CCOC(C)(C)C2)cc1 (some centres unmarked)", "Fulfilled"],
  ["COc1ccc([C@]2(CCN(Cc3ccc(C4=CC[C@H](CN5CCN(C(=O)c6ccc7c8c6CCCn8c(=O)n7[C@@H]6CCC(=O)NC6=O)CC5)CC4)cc3)CC(C)(C)C(F)(F)F)CCOC(C)(C)C2)cc1", "Not fulfilled"],
  ["COc1ccc([C@]2(CCN(CC3CC=C(c4ccc(NC(=O)C5CC(Nc6ccc7c(c6)n(C)c(=O)n7C6CCC(=O)NC6=O)C5)c(F)c4)CC3)CC(C)(C)C(F)(F)F)CCOC(C)(C)C2)cc1 (some centres unmarked)", "Fulfilled"]
]}

Next:
Data request: Given the entry COc1ccc([C@]2(CCN(Cc3ccc(-c4cccc(CC(=O)NCCNc5ccc6c(c5)n(C)c(=O)n6C5CCC(=O)NC5=O)c4)cc3)CC(C)(C)C(F)(F)F)CCOC(C)(C)C2)cc1 (some centres unmarked) , would its reported DC50 be below 7 nM?
Data returned: Not fulfilled

###

Record: pIC50 reported on UniProtKB Q13285.
Note on units: pIC50 is unitless, being -log10 of a concentration expressed in mol/L.

Examples with their reported pIC50 follow.
{"columns": ["compound", "pIC50"],
 "data": [
  ["CC1(C)CC(CCN(Cc2ccc(O[C@H]3CC[C@H](C(=O)O)CC3)cc2)C(=O)C(C)(C)C)(c2ccc(N3CCCC3)cc2)CCO1 (stereo partly drawn)", 7.27],
  ["COc1ccc(C2(CCN(Cc3ccc(O[C@H]4CC[C@H](C(=O)O)CC4)cc3)C(=O)C(C)(C)C)CCOC(C)(C)C2)cc1 (stereo partly drawn)", 7.54],
  ["CC1(C)CC(CCN(Cc2ccc(O[C@H]3CC[C@H](C(=O)O)CC3)cc2)C(=O)C(C)(C)C)(c2ccc(OC(F)(F)F)cc2)CCO1 (stereo partly drawn)", 7.70]
]}

Data request: May I ask what pIC50 has been recorded for COc1ccc(C2(CCN(Cc3ccc(O[C@H]4CC[C@H](C(=O)NS(=O)(=O)N(C)C)CC4)cc3)C(=O)C(C)(C)C)CCOC(C)(C)C2)cc1 (stereo partly drawn) ?
Data returned: 7.49

Data request: May I ask what pIC50 has been recorded for COc1ccc(C2(CCN(Cc3ccc(Oc4ccc(CC(C)(C)C(=O)O)cc4)cc3)C(=O)C(C)(C)C)CCOC(C)(C)C2)cc1 (stereo not drawn) ?
Data returned: 7.41

Data request: May I ask what pIC50 has been recorded for COc1ccc([C@]2(CCN(Cc3ccc(O[C@H]4CC[C@H](C(=O)O)CC4)cc3)C(=O)C(C)(C)C)CCOC(C)(C)C2)cc1 [Example E2] ?
Data returned: 7.72

Reference source: patent US12606533B2
